Recorded melting point by entry
// return numeric value only (unit: °C, not printed)

What measured melting point goes with "CC1(C)CCC(C)(C)c2cc(-c3cc(-c4ccc(C(=O)O)cc4)ccc3-c3ccccc3)c(O)cc21" ?
145

The record that follows has no melting point shown yet.
What measured melting point goes with "O=C(O)Cc1ccc(OCc2ccc3ccccc3n2)c(-n2cccc2)c1" ?
173

---

RECORDED METRIC: melting point

For orientation, consider the following solved cases.
What measured melting point goes with "CCn1c(Oc2ccc(F)cc2)nnc1[C@@H](C)N(C)S(=O)(=O)c1ccc(Cl)c(Cl)c1" ?
126 °C

What measured melting point goes with CNCC1Cc2cc(-c3ccccc3)cc(-c3ccc(F)cc3)c2O1 (stereo unspecified) ?
> 250 °C

What measured melting point goes with "CC(=O)OCC1c2c(c3ccccc3c3ccccc23)-c2c1c1ccccc1c1ccccc21" ?
209 to 210 °C

What measured melting point goes with COc1cc(N)c(Cl)cc1C(=O)NCC1CCC(C)N1Cc1ccccc1 (stereo unspecified) ?
136 to 137 °C

What measured melting point goes with "CCN(CC)CCn1nc2c3c(cccc31)C(=O)c1c(NCCNCCO)cccc1-2" ?
129 to 132 °C

What measured melting point goes with "O=[N+]([O-])c1ccc(C=Cc2ccc(OCCCCCCO)cc2)cc1" ?
118 °C

***
What measured melting point goes with "CCCCCCCCCCCCCC(=O)N(CCCCCCCC)CCC(=O)O" ?
47 °C

What measured melting point goes with "CN(C(=O)c1ccc(Cn2ncc3ccccc32)cc1)C1CCNCC1" ?
146 to 148 °C

What measured melting point goes with "COc1nc(OC)nc(N(C(=O)Oc2ccccc2)C(=O)Oc2ccccc2)n1" ?
125 °C

What measured melting point goes with "O=C(NCc1cccc([N+](=O)[O-])c1)Nc1ccccc1" ?
153 to 156 °C

What measured melting point goes with COC(=O)CC(O)CCSc1cc(C(C)(C)C)c(O)c(C(C)(C)C)c1 (stereo unspecified) ?
77 to 80 °C

Data origin: a melting point compilation (Tetko et al.; mined from patent text by program, amines drawn as free bases though some values may be those of a salt)
